MIC values by entry
System: Staphylococcus aureus
Assay: Tested in vitro against Staphylococcus aureus IID803 by agar dilution method
Assay type: functional
Please state the figure in mg/L; there is no need to write the unit.

- Compound: "O=C(O)c1cn(C2CC2)c2c(F)c(N3CCN(O)CC3)c(F)cc2c1=O"
  Experimental value: 0.39
- Compound: "O=C(O)c1cn(C2CC2)c2cc(N3CCNCC3)c(F)cc2c1=O"
  Experimental value: 0.78

[Q] Report value only: MIC, Staphylococcus aureus, CC1CN(c2c(F)cc3c(=O)c(C(=O)O)cn(C4CC4)c3c2F)CCN1O (stereo not drawn)
[A] 0.2
